# Tested on: Human coronavirus OC43
# TEST: microbe, parasite or virus in culture
# CONDITIONS_USED: Betacoronavirus 1, MRC5, 120 h
ASSAY_READOUT: EC50 (µM)
Write it as a number; the unit µM goes unstated.

State the recorded EC50 for this entry: CC(=O)N[C@H](C(=O)N1C[C@@H]2CCC[C@@H]2[C@H]1C(=O)N[C@H](C#N)C[C@@H]1CCNC1=O)C1CCCCC1
2.78

Query CC(C)(C)[C@H](NC(=O)C(F)(F)F)C(=O)N1C[C@@H]2C[C@@H]2[C@H]1C(=O)N[C@H](C#N)C[C@@H]1CCNC1=O next
5.81

Query CC(C)(C)[C@H](NC(=O)C(F)(F)F)C(=O)N1C[C@@H]2CCC[C@@H]2[C@H]1C(=O)N[C@H](C#N)C[C@@H]1CCNC1=O next
0.136

Query N#C[C@H](Cc1n[nH]c2ccccc12)NC(=O)[C@@H]1[C@H]2CCC[C@H]2CN1C(=O)[C@@H](NC(=O)C(F)(F)F)C1CCCCC1 next
4.89

Query N#C[C@H](C[C@@H]1CCNC1=O)NC(=O)[C@@H]1[C@H]2CCC[C@H]2CN1C(=O)[C@@H](NC(=O)C(F)(F)F)C1CCCCC1 next
0.112

Query CC(C)(C)NC(=O)C(=O)[C@H](C[C@@H]1CCNC1=O)NC(=O)[C@@H]1[C@H]2CCC[C@H]2CN1C(=O)[C@@H](NC(=O)C(F)(F)F)C1CCCC1 next
0.421

* * *

Measured Cmax of individual entries
# TEST: Cmax in rat at 10 mg/kg, po
# Assay type: ADME, organism-based
# Parameters: route po
# CONDITIONS_USED: in vivo
Write it as a number; the unit µM goes unstated.

CC(C)(C)[C@H](NC(=O)C(F)(F)F)C(=O)N1C[C@@H]2CCC[C@@H]2[C@H]1C(=O)N[C@H](C#N)C[C@@H]1CCNC1=O; 2.98
CC(C)(C)NC(=O)C(=O)[C@H](C[C@@H]1CCNC1=O)NC(=O)[C@@H]1[C@H]2CCC[C@H]2CN1C(=O)[C@@H](NC(=O)C(F)(F)F)C1CCCCC1; 3.79
CC(C)(C)[C@H](NC(=O)C(F)(F)F)C(=O)N1C[C@H]2[C@@H]([C@H]1C(=O)N[C@H](C#N)C[C@@H]1CCNC1=O)C2(C)C; 2.14

# ---- query molecule ----
State the recorded Cmax for this entry: N#C[C@H](C[C@@H]1CCNC1=O)NC(=O)[C@@H]1[C@H]2CCC[C@H]2CN1C(=O)[C@@H](NC(=O)C(F)(F)F)C1CCCCC1
3.47

* * *

Measured clearance of individual entries
# TEST: Clearance in rat at 2 mg/kg, iv
# Type: ADME, organism-based
# CONDITIONS_USED: in vivo
Please state the value followed by its unit.

Observe how each entry below is paired with its result.
CC(C)(C)[C@H](NC(=O)C(F)(F)F)C(=O)N1C[C@@H]2CCC[C@@H]2[C@H]1C(=O)N[C@H](C#N)C[C@@H]1CCNC1=O; 75.4 mL/min/kg
CC(C)(C)[C@H](NC(=O)C(F)(F)F)C(=O)N1C[C@H]2[C@@H]([C@H]1C(=O)N[C@H](C#N)C[C@@H]1CCNC1=O)C2(C)C; 42 mL/min/kg
CC(C)(C)NC(=O)C(=O)[C@H](C[C@@H]1CCNC1=O)NC(=O)[C@@H]1[C@H]2CCC[C@H]2CN1C(=O)[C@@H](NC(=O)C(F)(F)F)C1CCCCC1; 2.55 mL/min/kg

# ---- query compound ----
State the recorded clearance for this entry: N#C[C@H](C[C@@H]1CCNC1=O)NC(=O)[C@@H]1[C@H]2CCC[C@H]2CN1C(=O)[C@@H](NC(=O)C(F)(F)F)C1CCCCC1
62.7 mL/min/kg

* * *

# MEASURED_TARGET: Replicase polyprotein 1ab (Severe acute respiratory syndrome coronavirus 2)
pIC50: −log10 of the molar value.
Label rule, in plain words: pIC50 of 7 and up is class 1, under 7 is class 0.

Known results for compounds:
N#C[C@H](Cc1n[nH]c2ccccc12)NC(=O)[C@@H]1[C@H]2CCC[C@H]2CN1C(=O)[C@@H](NC(=O)C(F)(F)F)C1CCCCC1; class 0
CC(=O)N[C@H](C(=O)N1C[C@@H]2CCC[C@@H]2[C@H]1C(=O)N[C@H](C#N)C[C@@H]1CCNC1=O)C1CCCCC1; class 0
CC(C)(C)NC(=O)C(=O)[C@H](C[C@@H]1CCNC1=O)NC(=O)[C@@H]1[C@H]2CCC[C@H]2CN1C(=O)[C@@H](NC(=O)C(F)(F)F)C1CCCCC1; class 1
CC(C)(C)[C@H](NC(=O)C(F)(F)F)C(=O)N1C[C@@H]2C[C@@H]2[C@H]1C(=O)N[C@H](C#N)C[C@@H]1CCNC1=O; class 0

I'd appreciate it if you could say whether N#C[C@H](C[C@@H]1CCNC1=O)NC(=O)[C@@H]1[C@H]2CCC[C@H]2CN1C(=O)[C@@H](NC(=O)C(F)(F)F)C1CCCCC1 has pIC50 at least equal to 7.
class 1

Query CC(C)(C)[C@H](NC(=O)C(F)(F)F)C(=O)N1C[C@@H]2CCC[C@@H]2[C@H]1C(=O)N[C@H](C#N)C[C@@H]1CCNC1=O next
class 1

Query N#C[C@H](C[C@@H]1CCNC1=O)NC(=O)[C@@H]1[C@H]2CCC[C@H]2CN1C(=O)[C@@H](NC(=O)C(F)(F)F)c1ccc(F)cc1 next
class 0

* * *

# TEST: AUC in rat at 10 mg/kg, po
# Format: ADME, organism-based
# Design: dose 10 mg/kg, route po
# CONDITIONS_USED: in vivo
Measured AUC of individual entries
Please state the value followed by its unit.

N#C[C@H](C[C@@H]1CCNC1=O)NC(=O)[C@@H]1[C@H]2CCC[C@H]2CN1C(=O)[C@@H](NC(=O)C(F)(F)F)C1CCCCC1; 2.92 µM·h

State the recorded AUC for this entry: CC(C)(C)[C@H](NC(=O)C(F)(F)F)C(=O)N1C[C@@H]2CCC[C@@H]2[C@H]1C(=O)N[C@H](C#N)C[C@@H]1CCNC1=O
2.31 µM·h

Query CC(C)(C)NC(=O)C(=O)[C@H](C[C@@H]1CCNC1=O)NC(=O)[C@@H]1[C@H]2CCC[C@H]2CN1C(=O)[C@@H](NC(=O)C(F)(F)F)C1CCCCC1 next
37.4 µM·h

Query CC(C)(C)[C@H](NC(=O)C(F)(F)F)C(=O)N1C[C@H]2[C@@H]([C@H]1C(=O)N[C@H](C#N)C[C@@H]1CCNC1=O)C2(C)C next
2.38 µM·h

* * *

# TEST: Volume of distribution at steady state in rat at 2 mg/kg, iv
# Type: ADME, organism-based
# CONDITIONS_USED: in vivo, read-out: Vdss
Measured Vd of individual entries
Write it as a number; the unit L/kg goes unstated.

Observe how each entry below is paired with its result.
CC(C)(C)[C@H](NC(=O)C(F)(F)F)C(=O)N1C[C@@H]2CCC[C@@H]2[C@H]1C(=O)N[C@H](C#N)C[C@@H]1CCNC1=O; 1.25
CC(C)(C)NC(=O)C(=O)[C@H](C[C@@H]1CCNC1=O)NC(=O)[C@@H]1[C@H]2CCC[C@H]2CN1C(=O)[C@@H](NC(=O)C(F)(F)F)C1CCCCC1; 0.929
CC(C)(C)[C@H](NC(=O)C(F)(F)F)C(=O)N1C[C@H]2[C@@H]([C@H]1C(=O)N[C@H](C#N)C[C@@H]1CCNC1=O)C2(C)C; 1.24

# ---- query compound ----
State the recorded Vd for this entry: N#C[C@H](C[C@@H]1CCNC1=O)NC(=O)[C@@H]1[C@H]2CCC[C@H]2CN1C(=O)[C@@H](NC(=O)C(F)(F)F)C1CCCCC1
1.34

* * *

# TEST: Volume of distribution at steady state in mouse at 3 mg/kg, iv
# Format: ADME, organism-based
# CONDITIONS_USED: in vivo, read-out: Vdss
ASSAY_READOUT: Vd

Observe how each entry below is paired with its result.
CC(C)(C)NC(=O)C(=O)[C@H](C[C@@H]1CCNC1=O)NC(=O)[C@@H]1[C@H]2CCC[C@H]2CN1C(=O)[C@@H](NC(=O)C(F)(F)F)C1CCCC1; 0.911 L/kg
N#C[C@H](C[C@@H]1CCNC1=O)NC(=O)[C@@H]1[C@H]2CCC[C@H]2CN1C(=O)[C@@H](NC(=O)C(F)(F)F)C1CCCCC1; 1.01 L/kg

State the recorded Vd for this entry: CC(C)(C)[C@H](NC(=O)C(F)(F)F)C(=O)N1C[C@@H]2CCC[C@@H]2[C@H]1C(=O)N[C@H](C#N)C[C@@H]1CCNC1=O
0.64 L/kg

Query CC(C)(C)[C@H](NC(=O)C(F)(F)F)C(=O)N1C[C@H]2[C@@H]([C@H]1C(=O)N[C@H](C#N)C[C@@H]1CCNC1=O)C2(C)C next
0.456 L/kg

Origin of the recorded values: ChEMBL document CHEMBL5316373
